The origin of these recorded values is patent US7078059B2.

tested on: mature osteoblasts; test: In vitro bone formation assay (calcium deposition into bone nodules); format: cell-based, mouse; settings: first bone formation assay; calcium released from bone nodules after HCl extraction; LA number = ng/ml lanthanum; Control = Baseline+10^−10M 17β-estradiol
Quick reference for Calcium deposition, Mean ± SD among some compounds
Output spec: scalar in mmol/L, unitless text.

Some entries whose results are on file:
O.O.O.O.O=C([O-])[O-].O=C([O-])[O-].O=C([O-])[O-].[La+3].[La+3] [LA 5000, lanthanum carbonate tetrahydrate]	1.46
O.O.O.O.O=C([O-])[O-].O=C([O-])[O-].O=C([O-])[O-].[La+3].[La+3] [LA 100, lanthanum carbonate tetrahydrate]	0.11
O.O.O.O.O=C([O-])[O-].O=C([O-])[O-].O=C([O-])[O-].[La+3].[La+3] [LA 500, lanthanum carbonate tetrahydrate]	0.77
O.O.O.O.O=C([O-])[O-].O=C([O-])[O-].O=C([O-])[O-].[La+3].[La+3] [LA 1000, lanthanum carbonate tetrahydrate]	1.29

Proceeding to the next compound to report its Calcium deposition, Mean ± SD.
Q. Return the recorded Calcium deposition, Mean ± SD value; entry: O.O.O.O.O=C([O-])[O-].O=C([O-])[O-].O=C([O-])[O-].[La+3].[La+3] [LA 15000, lanthanum carbonate tetrahydrate]
A. 1.29
